# IC50 annotations
- Tested on: A549
- measurementDescription: Cytotoxicity against human A549 cells assessed as inhibition of cell viability incubated for 48 hrs by CCK8 assay
- Assay type: functional, cell-based
- conditionContext: A549, 48 h

compound | IC50
c1ccc2c(c1)nc(-c1cc(-c3ccc(N4CCCCCC4)cc3)on1)n2CCN1CCOCC1 | 10.9 µM
c1ccc2c(c1)nc(-c1cc(-c3ccc(N4CCCCC4)cc3)on1)n2CCN1CCCCC1 | 9.23 µM
O=C(c1ccccc1)n1c(-c2cc(-c3ccc(N4CCOCC4)cc3)on2)nc2ccccc21 | 20.9 µM
c1ccc2c(c1)nc(-c1cc(-c3ccc(N4CCCCCC4)cc3)on1)n2CCN1CCCCCC1 | 14.8 µM
CCN(CC)CCCn1c(-c2cc(-c3ccc(N(C)C)cc3)on2)nc2ccccc21 | 8.78 µM
c1ccc2c(c1)nc(-c1cc(-c3ccc(N4CCOCC4)cc3)on1)n2CCCN1CCOCC1 | 13.6 µM
CN(C)CCCn1c(-c2cc(-c3ccc(N4CCCCC4)cc3)on2)nc2ccccc21 | 6.04 µM
c1ccc2c(c1)nc(-c1cc(-c3ccc(N4CCCCCC4)cc3)on1)n2CCCN1CCOCC1 | 20.6 µM
CN(C)c1ccc(-c2cc(-c3nc4ccccc4n3CCN3CCCCC3)no2)cc1 | 9.22 µM
CCN(CC)CCCn1c(-c2cc(-c3ccc(N4CCCCCC4)cc3)on2)nc2ccccc21 | 12.2 µM
CN(C)c1ccc(-c2cc(-c3nc4ccccc4n3CCN3CCCCCC3)no2)cc1 | 11.4 µM
c1ccc(Cn2c(-c3cc(-c4ccc(N5CCOCC5)cc4)on3)nc3ccccc32)cc1 | > 40 µM
c1ccc2c(c1)nc(-c1cc(-c3ccc(N4CCOCC4)cc3)on1)n2CCN1CCCCC1 | 4.08 µM
Cc1ccc(C(=O)n2c(-c3cc(-c4ccc(F)cc4)on3)nc3ccccc32)cc1 | > 40 µM
CN(C)c1ccc(-c2cc(-c3nc4ccccc4n3CCCN3CCCCC3)no2)cc1 | 11.6 µM
CN(C)c1ccc(-c2cc(-c3nc4ccccc4n3CCN3CCCC3)no2)cc1 | 10.7 µM
CN(C)CCn1c(-c2cc(-c3ccc(N4CCOCC4)cc3)on2)nc2ccccc21 | 8.92 µM
Cc1cc(C)cc(OCCn2c(C3CC(=O)N(c4cccc(C)c4)C3)nc3ccccc32)c1 (centres undefined) | 15.3 µM
c1ccc2c(c1)nc(-c1cc(-c3ccc(N4CCOCC4)cc3)on1)n2CCN1CCCCCC1 | 9.94 µM
c1ccc2c(c1)nc(-c1cc(-c3ccc(N4CCCCC4)cc3)on1)n2CCN1CCOCC1 | 11.2 µM
Fc1ccc(-c2cc(-c3nc4ccccc4n3Cc3ccccc3)no2)cc1 | > 40 µM
CCN(CC)CCCn1c(-c2cc(-c3ccc(N4CCOCC4)cc3)on2)nc2ccccc21 | 8.53 µM
CN(C)CCCn1c(-c2cc(-c3ccc(N4CCCCCC4)cc3)on2)nc2ccccc21 | 8.19 µM
c1ccc2c(c1)nc(-c1cc(-c3ccc(N4CCCC4)cc3)on1)n2CCCN1CCOCC1 | 29.5 µM

Recorded values, source ChEMBL document CHEMBL6087414.
